# assay-name: Selectivity index, ratio of IC50 for cytotoxicity against African green monkey Vero cells to MIC for antimycobacterial activity against Mycobacterium tuberculosis H37Ra ATCC 25177
# Assay type: toxicity, cell-based
# experimental-parameters: read-out: Selectivity Index
Decide using selectivity ratio: a value greater than or equal to 90 is yes, a smaller one is no.

Incoming: Check if selectivity ratio >= 90 (inclusive). Item: CO[C@H]1/C=C/O[C@@]2(C)Oc3c(C)c(O)c4c(O)c(c(/C=N/N5CCN(C)CC5)c(O)c4c3C2=O)NC(=O)/C(C)=C\C=C\[C@H](C)[C@H](O)[C@@H](C)[C@@H](O)[C@@H](C)[C@H](OC(C)=O)[C@@H]1C
Outgoing: yes

Incoming: Check if selectivity ratio >= 90 (inclusive). Item: CCOc1cc(/C=N/NC(=O)c2ccncc2)ccc1OC(=O)CC1SC(=O)NC1=O (stereo not drawn)
Outgoing: no

Incoming: Check if selectivity ratio >= 90 (inclusive). Item: COc1cc(/C=N/NC(=O)c2ccncc2)ccc1OC(=O)CC1SC(=O)NC1=O (stereo not drawn)
Outgoing: yes

Incoming: Check if selectivity ratio >= 90 (inclusive). Item: O=C(CC1SC(=O)NC1=O)Oc1ccc(/C=N/NC(=O)c2ccncc2)cc1Br (stereo not drawn)
Outgoing: yes

Incoming: Check if selectivity ratio >= 90 (inclusive). Item: O=C(CC1SC(=O)NC1=O)Oc1ccc(/C=N/NC(=O)c2ccncc2)cc1Cl (stereo not drawn)
Outgoing: no

Incoming: Check if selectivity ratio >= 90 (inclusive). Item: O=C(/C=C1/SC(=O)NC1=O)Oc1cccc(/C=N\NC(=O)c2ccncc2)c1
Outgoing: yes

Numbers sourced from ChEMBL document CHEMBL4680164.
